- Test system: male Lewis-Wistar rats
- TEST_DESCRIPTION: Established adjuvant-induced arthritis test in rats
- Format: in vivo
- CONDITION_LABEL: rat, 25 mg./kg. p.o. × 15, corn oil-acacia emulsion by gavage, days 15-29; from areas under the curves of uninjected paw volume
Binary label based on % Inhibition of Uninjected Paw Volume Inflammation, Days 14 through 30 with cut-off 40%: below gives True, not below gives False.

Previously resolved entries follow.
>>> group_label("COc1ccc(-c2ccc(-c3ccc(Br)cc3)cc2-c2ccc(OC)cc2)cc1")
"True"
>>> group_label("COc1ccc(-c2ccc(-c3ccc(Cl)cc3)cc2-c2ccc(OC)cc2)cc1")
"False"
>>> group_label("COc1ccc(-c2ccc(-c3ccccc3)cc2-c2ccc(OC)cc2)cc1")
"True"

// switching to the query molecule
Quick check: does COc1ccc(-c2ccc(-c3ccc(F)cc3)cc2-c2ccc(OC)cc2)cc1 have % Inhibition of Uninjected Paw Volume Inflammation, Days 14 through 30 under 40%?
False
